assay: Tmax in Sprague-Dawley rat at 10 mg/kg, po after 0.25 to 24 hrs by LC-MS/MS method; type: ADME, organism-based; details: in vivo
Overview of recorded Tmax for various molecules
Report as a plain number; the unit min is understood.

[[record]]
record_smiles = "CN(c1ncnc2[nH]ccc12)[C@H]1CN(C(=O)CC#N)CC12CC2.O=C(O)CC(O)(CC(=O)O)C(=O)O"
unit_label = "min"
test_value = 30

[[record]]
record_smiles = "CN(c1ncnc2[nH]ccc12)[C@H]1CN(C(=O)CC#N)CC12CC2.Cl"
unit_label = "min"
test_value = 24

[[record]]
record_smiles = "CN(c1ncnc2[nH]ccc12)[C@H]1CN(C(=O)CC#N)CC12CC2"
unit_label = "min"
test_value = 18


Consider the record given below.
Incoming: I am curious: what Tmax value has been reported for CN(c1ncnc2[nH]ccc12)[C@H]1CN(C(=O)CC#N)CC12CC2.O=C(O)C(O)C(O)C(=O)O ?
Outgoing: 24

====

Target: CYP1A2 (Homo sapiens, UniProt P05177)
Sequence (P05177 whole entry): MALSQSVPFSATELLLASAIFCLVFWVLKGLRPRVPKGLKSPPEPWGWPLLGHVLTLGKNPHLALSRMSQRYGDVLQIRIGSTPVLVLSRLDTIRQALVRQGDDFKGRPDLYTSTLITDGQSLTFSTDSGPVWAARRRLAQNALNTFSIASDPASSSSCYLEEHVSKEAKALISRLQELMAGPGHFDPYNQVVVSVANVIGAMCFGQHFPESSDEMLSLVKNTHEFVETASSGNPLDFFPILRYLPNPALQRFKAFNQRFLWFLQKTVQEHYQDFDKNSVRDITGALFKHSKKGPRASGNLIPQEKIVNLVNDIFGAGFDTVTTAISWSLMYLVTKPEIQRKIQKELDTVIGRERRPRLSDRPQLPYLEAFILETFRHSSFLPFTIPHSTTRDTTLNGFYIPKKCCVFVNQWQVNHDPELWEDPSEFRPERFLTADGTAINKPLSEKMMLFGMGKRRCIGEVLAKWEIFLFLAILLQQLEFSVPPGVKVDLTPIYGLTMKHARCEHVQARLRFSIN
Assay: Inhibition of CYP1A2 in human liver microsomes assessed as remaining activity at 10 uM using phenacetin as substrate preincubated for 5 mins followed by addition of NADPH regenerating system and measured after 15 mins by LC-MS/MS analysis relative to control
Format: ADME
Conditions: probe phenacetin, read-out: Activity
Overview of recorded activity at 0.25 h, 10 µM for various compounds
Report as a plain number; the unit % is understood.

Incoming: I am curious: what activity at 0.25 h, 10 µM value has been reported for CN(c1ncnc2[nH]ccc12)[C@H]1CN(S(=O)(=O)c2cccc(C#N)c2)CC12CC2 ?
Outgoing: 65.7

Incoming: I am curious: what activity at 0.25 h, 10 µM value has been reported for CN(c1ncnc2[nH]ccc12)[C@H]1CN(C(=O)CC#N)CC12CC2 ?
Outgoing: 92.5

Incoming: I am curious: what activity at 0.25 h, 10 µM value has been reported for CCS(=O)(=O)N1C[C@H](N(C)c2ncnc3[nH]ccc23)C2(CC2)C1 ?
Outgoing: 99.9

====

test system: Rattus norvegicus; experiment: AUC (0 to t) in Sprague-Dawley rat at 10 mg/kg, po after 0.25 to 24 hrs by LC-MS/MS method; type: ADME, organism-based; parameters: time lower 0.25 hr, dose 10 mg/kg, time upper 24 hr, route oral; settings: in vivo
measure: AUCt (ng·h/mL)
Report as a plain number; the unit ng·h/mL is understood.

Answered cases to consult:
[[record]]
record_smiles = "CN(c1ncnc2[nH]ccc12)[C@H]1CN(C(=O)CC#N)CC12CC2.O=C(O)C(O)C(O)C(=O)O"
unit_label = "ng·h/mL"
test_value = 1900

[[record]]
record_smiles = "CN(c1ncnc2[nH]ccc12)[C@H]1CN(C(=O)CC#N)CC12CC2.O=C(O)CC(O)(CC(=O)O)C(=O)O"
unit_label = "ng·h/mL"
test_value = 2400

[[record]]
record_smiles = "CN(c1ncnc2[nH]ccc12)[C@H]1CN(C(=O)CC#N)CC12CC2.Cl"
unit_label = "ng·h/mL"
test_value = 2400


Incoming: What value of AUCt on Rattus norvegicus does CN(c1ncnc2[nH]ccc12)[C@H]1CN(C(=O)CC#N)CC12CC2 have?
Outgoing: 1900

Origin of measurements: ChEMBL document CHEMBL4257478
